Overview of recorded T/C for various compounds
# Test system: L1210 leukemia ip in BDF1 mice, survival T/C
# Assay name: NCI In Vivo Anticancer Drug Screen. Data for tumor model L1210 Leukemia (intraperitoneal) in B6D2F1 (BDF1) mice
# Test settings: endpoint: mean survival time; dose: 25.0 mg/kg/injection; schedule: Q04DX002 (ip); vehicle: saline with Tween-80; higher = longer survival
Inconclusive results and toxic doses are left out.
Quantity kind: T/C

CC(=O)OC1CCC2(C)C(CCC3C2CCC2(C)C3CC3OC(CCC(C)O)C(C)C32)C1 (centres undefined) :: 102 % of control
CN(C)CCCNC(=O)C1C(c2ccccc2)C1c1ccccc1 (centres undefined) :: 102 % of control
CCC1(C)CCC2(C)C(CCC3C2CCCC3(C)C(=O)O)C1 (centres undefined) :: 96 % of control
CC(C)N(CCNCC(Cc1ccccc1)c1ccccc1)C(C)C (centres undefined) :: 99 % of control

###

# Tested on: L1210 leukemia ip in BDF1 mice, survival T/C
# Assay name: NCI In Vivo Anticancer Drug Screen. Data for tumor model L1210 Leukemia (intraperitoneal) in B6D2F1 (BDF1) mice
# Test settings: endpoint: mean survival time; dose: 200.0 mg/kg/injection; schedule: Q04DX002 (ip); vehicle: Klucel (hydroxypropylcellulose) (HPC); higher = longer survival
Inconclusive results and toxic doses are left out.
Quantity kind: T/C

Cc1nccn1-c1ccc(Cl)cc1N=Cc1ccc(N(CCCl)CCCl)cc1Cl :: 95 % of control
O=[N+]([O-])c1ccc(C(Cl)S(=O)(=O)c2ccccc2)cc1 (stereo unspecified) :: 100 % of control
[O-][N+](=Nc1ccc(Br)cc1)c1ccc(Br)cc1 :: 100 % of control
CC(C)OC(=O)Oc1c(Cl)c(Cl)c(Cl)c(Cl)c1Cl :: 94 % of control
CCN(C)C(=O)Nc1cccc([N+](=O)[O-])c1 :: 93 % of control
O=C1OCC/C1=C/OCCO/C=C1\CCOC1=O :: 90 % of control
Cc1ccc(C)c(S(N)(=O)=O)c1 :: 100 % of control
CN(C)c1ccc(N=Nc2ccc(S(=O)(=O)O)cc2)cc1 :: 103 % of control
CCOC(=O)Cc1nc2ccccc2[nH]c1=O :: 96 % of control
Cc1ccc2c(ccc3cc(C)ccc32)c1 :: 101 % of control
CCCP(C)(C)=S :: 90 % of control
COc1ccc(F)cc1CC#N :: 98 % of control
O=c1c2cnc3c4cccnc4ccc3c2[nH]n1-c1ccccc1 :: 109 % of control
CC/C(=N\N=C(/CC)c1ccccc1)c1ccccc1 :: 107 % of control
O=[N+]([O-])c1ccc(SSc2ccc([N+](=O)[O-])cc2)cc1 :: 100 % of control
CNC(=S)N/N=C(\C=N\NC(=S)NC)c1ccc(C)cc1 :: 100 % of control

###

# T/C listing for each entry below
# Tested on: L1210 leukemia ip in BDF1 mice, survival T/C
# Assay name: NCI In Vivo Anticancer Drug Screen. Data for tumor model L1210 Leukemia (intraperitoneal) in B6D2F1 (BDF1) mice
# Test settings: endpoint: mean survival time; dose: 200.0 mg/kg/injection; schedule: Q04DX003 (ip); vehicle: Klucel (hydroxypropylcellulose) (HPC); higher = longer survival
Inconclusive results and toxic doses are left out.
Quantity kind: T/C

CC1=C(Br)C(=O)C(c2c(C)cc(C)c(Br)c2C)=C(Br)C1=O :: 94 % of control
CON=C(c1ccc(N(C)C)cc1)c1ccc(N(C)C)cc1 :: 100 % of control
[Cl][Sb]([Cl])([c]1ccccc1)([c]1ccccc1)[c]1ccccc1 :: 96 % of control
O=C(O)c1ccc2c(c1)Sc1ccccc1N2 :: 95 % of control
O=CNc1ccc(Cl)cc1 :: 97 % of control
COC(=O)C(C)(N)Cc1ccc(O)c(C)c1 (stereo not drawn) :: 101 % of control
Fc1c(F)c(C(F)(F)F)c(F)c(F)c1P(c1c(F)c(F)c(C(F)(F)F)c(F)c1F)c1c(F)c(F)c(C(F)(F)F)c(F)c1F :: 100 % of control
Cc1ccc(S(=O)(=O)NC(=O)NCc2ccco2)cc1 :: 86 % of control
CCCCCCCC(O)CCCCC (stereo not drawn) :: 104 % of control
CCOC(=O)c1cnc(C)nc1Nc1ccccc1Br :: 93 % of control
Cc1c(Cl)ccc2c(=O)c(C(=O)O)c[nH]c12 :: 103 % of control
O=S1(=O)C=C(Br)c2ccccc21 :: 96 % of control
O=[N+]([O-])c1ccc(N2CCCCC2)cc1 :: 104 % of control
